Kindly supply the reported % inhibition of DON/AcDON at 50 μM values for the records listed here.
system: DON/AcDON production; test: microbe, parasite or virus in culture; format: cell-based, Fusarium graminearum; details: 7 days at 28° C.
API: value field is a number in %; no unit string.

Send back DON/AcDON production % inhibition of DON/AcDON at 50 μM of COCC(=O)Nc1cc(-c2c(-c3ccccc3)nn3c2CCCC3)ccn1 only. 100

Identify measured % inhibition of DON/AcDON at 50 μM obtained with DON/AcDON production for O=C(Nc1cc(-c2c(-c3ccsc3)nn3c2CCCC3)ccn1)C1CC1 . 100

Find % inhibition of DON/AcDON at 50 μM for C[C@@H](O)C(=O)Nc1cc(-c2c(-c3ccsc3)nn3c2CCCC3)ccn1 on DON/AcDON production and write it down. 98

// fetch % inhibition of DON/AcDON at 50 μM; item: COC(=O)Nc1cc(-c2c(-c3ccsc3)nn3c2CCCC3)ccn1 ; system: DON/AcDON production 100

Specify % inhibition of DON/AcDON at 50 μM for C[C@H](O)C(=O)Nc1cc(-c2c(-c3ccc(F)cc3)nn3c2CCCC3)ccn1 , system DON/AcDON production. 99

Using DON/AcDON production as the test system, report measured % inhibition of DON/AcDON at 50 μM of Fc1cc(-c2c(-c3ccc(Cl)cc3)nn3c2CCC3)ccn1 . 96

// output % inhibition of DON/AcDON at 50 μM; input CC(C)(O)C(=O)Nc1cc(-c2c(-c3ccccc3)nn3c2CCCC3)ccn1 ; system DON/AcDON production 92

Provide measured % inhibition of DON/AcDON at 50 μM on DON/AcDON production for O=CNc1cc(-c2c(-c3ccc(F)cc3)nn3c2CCCC3)ccn1 please. 99

Give DON/AcDON production % inhibition of DON/AcDON at 50 μM for the following molecule: CC(C)CC(=O)Nc1cc(-c2c(-c3ccc(F)cc3)nn3c2CCCC3)ccn1 99

###

tested on: DON/AcDON production; test: microbe, parasite or virus in culture; assay type: cell-based, Fusarium graminearum; settings: 7 days at 28° C.
measurementType: % inhibition of DON/AcDON at 50 μM (%)
Number only, in %; omit the unit.

For the compound C[C@H](O)C(=O)Nc1cc(-c2c(-c3ccccc3)nn3c2CCCC3)ccn1 [Example 25] , give its reported % inhibition of DON/AcDON at 50 μM. 99

Read off the recorded % inhibition of DON/AcDON at 50 μM for CC(C)C(=O)Nc1cc(-c2c(-c3ccc(F)cc3)nn3c2CCCC3)ccn1 [Example 28] 99

Indicate its recorded % inhibition of DON/AcDON at 50 μM; the compound in question is CC(=O)Nc1cc(-c2c(-c3ccsc3)nn3c2CCCC3)ccn1 [Example 58] 100

Determine from records and report % inhibition of DON/AcDON at 50 μM for CC(C)(C)OC(=O)Nc1cc(-c2c(-c3ccc(F)cc3)nn3c2CCCC3)ccn1 [Example 16] 93

Please look at this compound and report its % inhibition of DON/AcDON at 50 μM: CN(C)C=Nc1cc(-c2c(-c3ccccc3)nn3c2CCCC3)ccn1 [Example 38] 99

Respond only with % inhibition of DON/AcDON at 50 μM recorded for O=C(Cc1ccccc1)Nc1cc(-c2c(-c3ccc(F)cc3)nn3c2CCCC3)ccn1 [Example 34] 99

Let me know recorded % inhibition of DON/AcDON at 50 μM for CCC(=O)Nc1cc(-c2c(-c3ccsc3)nn3c2CCCC3)ccn1 [Example 59] , thanks. 100

Note % inhibition of DON/AcDON at 50 μM for the compound shown: c1csc(-c2nn3c(c2-c2ccncc2)CCCC3)c1 [Example 62] 100

Tell me its % inhibition of DON/AcDON at 50 μM given CC(C)Nc1cc(-c2c(-c3cccc(F)c3)nn3c2CCC3)ccn1 [Example 56] as the entry. 92

Specify reported % inhibition of DON/AcDON at 50 μM for the compound shown: Nc1cc(-c2c(-c3ccccc3)nn3c2CCCC3)ccn1 [Example 14] 93

Quickly give me recorded % inhibition of DON/AcDON at 50 μM for O=C(Nc1cc(-c2c(-c3ccc(F)cc3)nn3c2CCCC3)ccn1)c1ccsc1 [Example 47] 100

Indicate its recorded % inhibition of DON/AcDON at 50 μM; the compound in question is c1cc(-c2c(-c3ccsc3)nn3c2CCC3)ccn1 [Example 46] 100

Write down % inhibition of DON/AcDON at 50 μM measured for item O=CNc1cc(-c2c(-c3ccccc3)nn3c2CCCC3)ccn1 [Example 37] 99

Give % inhibition of DON/AcDON at 50 μM for the following compound: FC(F)(F)c1cccc(-c2nn3c(c2-c2ccncc2)CCC3)c1 [Example 42] 98

Please report % inhibition of DON/AcDON at 50 μM for the following compound: Clc1ccc(-c2nn3c(c2-c2ccncc2)CCC3)cc1 [Example 11] 100

Identify % inhibition of DON/AcDON at 50 μM associated with the compound CC(=O)Nc1cc(-c2c(-c3ccc(F)cc3)nn3c2CCCC3)ccn1 [Example 15] 99

Read the entry O=C(Nc1cc(-c2c(-c3ccccc3)nn3c2CCCC3)ccn1)c1ccsc1 [Example 51] and write its reported % inhibition of DON/AcDON at 50 μM. 100

State its % inhibition of DON/AcDON at 50 μM: O=C(Nc1cc(-c2c(-c3ccc(F)cc3)nn3c2CCCC3)ccn1)c1ccccc1 [Example 32] 99

Quote % inhibition of DON/AcDON at 50 μM reported for CC(C)C(=O)Nc1cc(-c2c(-c3ccsc3)nn3c2CCCC3)ccn1 [Example 63] please. 100
